target.or.test.system: CDK2 (Homo sapiens)
Construct: High-Throughput Measurement of Cellular Endogenous CDK2; endogenous in cells
assay.overview: Inhibition of CDK2: phospho-Rb (S807/811) HTRF measurement in OVCAR3 cells, 24 h
test.parameters: 24 h compound treatment, read-out: pRB_OVCAR3_24h
pIC50: −log10 of the molar value.
Would you mind telling me the reported pIC50 of each entry?

IN: Look up CDK2 (Homo sapiens) data: pIC50 of Cn1c(=O)n(C2CCC(=O)NC2=O)c2cccc(C3CCN(Cc4cc(S(=O)(=O)N5CCC(Nc6ncc(OC(F)F)cn6)CC5)ccc4C#N)CC3)c21 (stereo not drawn) , then report it.
OUT: 6.30 to 7.00

IN: State pIC50 on CDK2 (Homo sapiens). Entry: `Cn1nc(N2CCC(=O)NC2=O)c2ccc(C3CCN(CC4CCN(c5cccc(S(=O)(=O)N6CCC(Nc7ncc(Br)cn7)CC6)c5)CC4)CC3)cc21`
OUT: 7.00 to 9.00

IN: Specify pIC50 for Cn1nc(N2CCC(=O)NC2=O)c2ccc(C3CCN(CC4CCCN(c5cccc(S(=O)(=O)N6CCC(Nc7ncc(Cl)cn7)CC6)c5)CC4)CC3)cc21 (stereo not drawn) , system CDK2 (Homo sapiens).
OUT: 6.30 to 7.00

---

target.or.test.system: CDK2 (Homo sapiens)
Construct: High-Throughput Measurement of Cellular Endogenous CDK2; endogenous in cells; host or cells: OVCAR3
assay.overview: High-throughput HTRF measurement of cellular endogenous CDK2 level (degradation, DC50/Dmax) in OVCAR3 cells, 6 h
Format: cell-based
test.parameters: 6 h compound treatment, HTRF total CDK2, read-out: DC50_OVCAR3_6h
readout: DC50

IN: Quickly give me recorded DC50 for `Cn1nc(N2CCC(=O)NC2=O)c2ccc(C3CCN(CC4CN(c5cccc(S(=O)(=O)N6CCC(Nc7ncc(C(F)(F)F)cn7)CC6)c5)C4)CC3)cc21`
OUT: 10 to 100 nM

IN: Please give the documented DC50 of `CCc1cnc(NC2CCN(S(=O)(=O)c3cccc(CN4CCC(c5ccc6c(N7CCC(=O)NC7=O)nn(C)c6c5)CC4)c3)CC2)nc1`
OUT: 10 to 100 nM

IN: Hello, please tell me recorded DC50 for this one: `Cn1nc(N2CCC(=O)NC2=O)c2ccc(C3CCN(Cc4cccc(S(=O)(=O)N5CCC(Nc6ncc(OC(F)F)cn6)CC5)c4)CC3)c(F)c21`
OUT: 1 to 10 nM

IN: Tell me its DC50 given O=C1CCC(N2Cc3cc(C4CCN(CC5CCN(c6cccc(S(=O)(=O)N7CCC(Nc8ncc(C(F)(F)F)cn8)CC7)c6)CC5)CC4)c(F)cc3C2=O)C(=O)N1 (centres unmarked) as the entry.
OUT: 1 to 10 nM

IN: Answer with reported DC50 of `Cn1nc(N2CCC(=O)NC2=O)c2ccc(C3CCN(Cc4cccc(S(=O)(=O)N5CCC(Nc6ncc(Cl)cn6)CC5)c4)CC3)cc21`
OUT: 1 to 10 nM

IN: Provide measured DC50 value, entry: O=C1CCC(N2Cc3cc(N4CCN(Cc5cccc(S(=O)(=O)N6CCC(Nc7ncc(C(F)(F)F)cn7)CC6)c5)CC4)ccc3C2=O)C(=O)N1 (centres unmarked)
OUT: 1 to 10 nM

IN: Give me measured DC50, please, for this compound: Cn1c(=O)n(C2CCC(=O)NC2=O)c2cccc(C3CCN(CC4CCN(c5cc(F)cc(S(=O)(=O)N6CCC(Nc7ncc(Cl)cn7)CC6)c5)CC4)CC3)c21 (centres unmarked)
OUT: 10 to 100 nM

IN: Output measured DC50 for this item: `Cn1nc(N2CCC(=O)NC2=O)c2cc(F)c(C3CCN(CC4CCN(c5cccc(S(=O)(=O)N6CCC(Nc7ncc(Cl)cn7)CC6)c5)CC4)CC3)cc21`
OUT: 10 to 100 nM

IN: State its DC50: `Cn1nc(N2CCC(=O)NC2=O)c2ccc(C3CCN(Cc4ccc(S(=O)(=O)N5CCC(Nc6ncc(C(F)(F)F)cn6)CC5)cc4)CC3)cc21`
OUT: 1 to 10 nM

IN: Indicate its recorded DC50; the compound in question is CC(c1cccc(S(=O)(=O)N2CCC(Nc3ncc(Cl)cn3)CC2)c1)N1CCC(c2ccc3c(N4CCC(=O)NC4=O)nn(C)c3c2)CC1 (centres unmarked)
OUT: 10 to 100 nM

IN: // fetch DC50 given entry O=C1CCC(N2Cc3cc(N4CCC(CN5CCN(c6cccc(S(=O)(=O)N7CCC(Nc8ncc(C(F)(F)F)cn8)CC7)c6)CC5)CC4)ccc3C2=O)C(=O)N1 (centres unmarked)
OUT: 1000 to 5000 nM

IN: Please give the documented DC50 of `Cn1nc(N2CCC(=O)NC2=O)c2cc(F)c(C3CCN(Cc4cccc(S(=O)(=O)N5CCC(Nc6ncc(C(F)(F)F)cn6)CC5)c4)CC3)cc21`
OUT: 10 to 100 nM

IN: Complete the entry with DC50 for `O=C1CCN(c2noc3cc(C4CCN(CC5CCN(c6cccc(S(=O)(=O)N7CCC(Nc8ncc(C(F)(F)F)cn8)CC7)c6)CC5)CC4)ccc23)C(=O)N1`
OUT: 1 to 10 nM

IN: Annotate the compound `Cn1nc(N2CCC(=O)NC2=O)c2ccc(C3CCN(CC4CCN(c5cc(F)cc(S(=O)(=O)N6CCC(Nc7ncc(C(F)(F)F)cn7)CC6)c5)CC4)CC3)cc21` with its measured DC50.
OUT: 1 to 10 nM

IN: Specify measured DC50 for `Cn1nc(N2CCC(=O)NC2=O)c2ccc(C3CCN(Cc4cccc(S(=O)(=O)N5CCC(Nc6ncc(C(F)(F)F)cn6)CC5)c4)CC3)c(F)c21` .
OUT: 10 to 100 nM

IN: Indicate the recorded DC50 value for this compound: `Cn1nc(N2CCC(=O)NC2=O)c2ccc(C3CCN(CC4CCN(c5cc(S(=O)(=O)N6CCC(Nc7ncc(OC(F)F)cn7)CC6)ccc5C#N)CC4)CC3)c(F)c21`
OUT: 1 to 10 nM

IN: Provide DC50 value for the following compound: `C=Cc1cnc(NC2CCN(S(=O)(=O)c3cccc(N4CCC(CN5CCC(c6ccc7c(N8CCC(=O)NC8=O)nn(C)c7c6)CC5)CC4)c3)CC2)nc1`
OUT: 1 to 10 nM

IN: // Input: Cn1c(=O)n(C2CCC(=O)NC2=O)c2cc(F)cc(C3CCN(CC4CCN(c5cc(S(=O)(=O)N6CCC(Nc7ncc(Cl)cn7)CC6)ccc5C#N)CC4)CC3)c21 (centres unmarked) . Output its DC50 only.
OUT: 10 to 100 nM

IN: Report DC50, nothing else, for this compound: `Cn1nc(N2CCC(=O)NC2=O)c2ccc(C3CCN(CC4CCN(c5cccc(S(=O)(=O)N6CCC(Nc7ncc(C(F)(F)F)cn7)CC6)c5)CC4)CC3)c(Cl)c21`
OUT: 10 to 100 nM

IN: Give reported DC50 value for `Cn1nc(N2CCC(=O)NC2=O)c2ccc(C3CCN(Cc4cccc(S(=O)(=O)N5CCC(Nc6ncc(Br)cn6)CC5)c4)CC3)cc21`
OUT: 1 to 10 nM

IN: Provide DC50 value for the following compound: `Cn1nc(N2CCC(=O)NC2=O)c2ccc(C3CCN(Cc4ccc(S(=O)(=O)N5CCC(Nc6ncc(OC(F)F)cn6)CC5)cc4)CC3)cc21`
OUT: 1 to 10 nM

IN: Output DC50 of `Cn1nc(N2CCC(=O)NC2=O)c2ccc(C3CCN(CC4CCN(c5cccc(S(=O)(=O)N6CCC(Nc7ncc(Br)cn7)CC6)c5)CC4)CC3)cc21`
OUT: 1 to 10 nM

IN: Please look at this compound and report its DC50: `Cn1nc(N2CCC(=O)NC2=O)c2ccc(C3CCN(CC4CCN(c5cc(F)cc(S(=O)(=O)N6CCC(Nc7ncc(Cl)cn7)CC6)c5)CC4)CC3)cc21`
OUT: 1 to 10 nM

---

target.or.test.system: CDK2 (Homo sapiens, UniProt P24941)
Construct: High-Throughput Measurement of Cellular Endogenous CDK2; endogenous in cells
assay.overview: Inhibition of CDK2: phospho-Rb (S807/811) HTRF measurement in OVCAR3 cells, 24 h
test.parameters: 24 h compound treatment, read-out: pRB_OVCAR3_24h
I'd be grateful if you could share measured IC50 for these entries.

IN: Report IC50 for Cn1nc(N2CCC(=O)NC2=O)c2ccc(C3CCN(CC4CN(c5cccc(S(=O)(=O)N6CCC(Nc7ncc(Cl)cn7)CC6)c5)C4)CC3)cc21 [Example 129]
OUT: 1 to 100 nM

IN: Fill in IC50 for record O=C1CCC(N2Cc3cc(C4CN(Cc5cccc(S(=O)(=O)N6CCC(Nc7ncc(Cl)cn7)CC6)c5)C4)ccc3C2=O)C(=O)N1 (centres unmarked) [Example 50]
OUT: 500 to 2500 nM

IN: Quickly give me recorded IC50 for Cn1nc(N2CCC(=O)NC2=O)c2ccc(C3CCN(Cc4cccc(S(=O)(=O)[C@H]5CC[C@H](Nc6ncc(C(F)(F)F)cn6)CC5)c4)CC3)cc21 [Example 10]
OUT: 500 to 2500 nM

IN: Look up and report measured IC50 for this entry: Cn1nc(N2CCC(=O)NC2=O)c2ccc(N3CC4(CN(Cc5cccc(S(=O)(=O)N6CCC(Nc7ncc(C(F)(F)F)cn7)CC6)c5)C4)C3)cc21 [Example 4]
OUT: 100 to 500 nM

IN: Supply reported IC50 belonging to this compound: Cn1nc(N2CCC(=O)NC2=O)c2ccc(C3CCN(CC4CCN(c5cc(S(=O)(=O)N6CCC(Nc7ncc(OC(F)F)cn7)CC6)ccc5C#N)CC4)CC3)c(F)c21 [Example 192]
OUT: 1 to 100 nM

IN: Answer with reported IC50 of Cn1nc(N2CCC(=O)NC2=O)c2ccc(C3CCN(CC4CCN(c5cccc(S(=O)(=O)N6CC[C@H](Nc7ncc(Cl)cn7)[C@H](F)C6)c5)CC4)CC3)cc21 (racemic) [Example 202]
OUT: 1 to 100 nM

IN: Output IC50 of Cn1nc(N2CCC(=O)NC2=O)c2cc(F)c(C3CCN(CC4CCN(c5cccc(S(=O)(=O)N6CCC(Nc7ncc(C(F)(F)F)cn7)CC6)c5)CC4)CC3)cc21 [Example 100]
OUT: 1 to 100 nM

IN: Kindly indicate its recorded IC50. Item: O=C1CCC(N2Cc3cc(N4CCC(CN5CCN(c6cccc(S(=O)(=O)N7CCC(Nc8ncc(Cl)cn8)CC7)c6)CC5)CC4)ccc3C2=O)C(=O)N1 (centres unmarked) [Example 247]
OUT: 1 to 100 nM

IN: Specify IC50 for Cn1c(=O)n(C2CCC(=O)NC2=O)c2cccc(C3CCN(CC4CCN(c5cc(S(=O)(=O)N6CCC(Nc7ncc(C(F)(F)F)cn7)CC6)ccc5C#N)CC4)CC3)c21 (centres unmarked) [Example 181] and stop.
OUT: 1 to 100 nM

IN: Please report the measured IC50 for Cn1nc(N2CCC(=O)NC2=O)c2ccc(C3CN(CC4CCN(c5cccc(S(=O)(=O)N6CCC(Nc7ncc(Cl)cn7)CC6)c5)CC4)C3)cc21 [Example 249]
OUT: 100 to 500 nM

IN: Tell me IC50 reported for O=C1CCC(N2Cc3cc(N4CCN(Cc5cccc(S(=O)(=O)N6CCC(Nc7ncc(OC(F)F)cn7)CC6)c5)CC4)c(F)cc3C2=O)C(=O)N1 (centres unmarked) [Example 74]
OUT: 100 to 500 nM
